- Test system: ATP;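 further: ATP exposure 15 min at 22 °C before imaging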
- MEASUREMENT_NOTES: switch fluorescence ratio, 500 uM ATP over buffer (Cy3 cluster intensity, sum of 5 cycles each) (fold (ratio)); higher = stronger signal-on switching upon ATP binding; sequences stand for … in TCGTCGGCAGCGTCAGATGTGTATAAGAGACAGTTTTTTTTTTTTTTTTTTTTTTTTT…TC
- CONDITIONS: aptamer strand: ATP DNA aptamer (quencher-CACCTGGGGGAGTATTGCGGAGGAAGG + anchor), 100 nM annealed; ATP concentration: 500 uM
PROPERTY_NAME: switch fluorescence ratio
Just the number, please.

INSERT INTO results (residue_string, result) VALUES
  ('ATTGAGTTAT', 0.967),
  ('GAAGGACGGG', 1),
  ('ACTTCACATA', 1.35),
  ('TTCCAATAAG', 1.01),
  ('CACGGCGACA', 1.15),
  ('TTGGTGTCGG', 0.974);

Name the recorded switch fluorescence ratio of the sequence listed here: GTGTGCGGTG 0.982

Name the recorded switch fluorescence ratio of the sequence listed here: CGCTGGGGGC 1.03

Name the recorded switch fluorescence ratio of the sequence listed here: TAGGATATTT 1

Name the recorded switch fluorescence ratio of the sequence listed here: GGTTAGGGG 0.99

Name the recorded switch fluorescence ratio of the sequence listed here: CAATATCCGA 1

---

- Tested on: ATP;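 further: ATP exposure 15 min at 22 °C before imaging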
- MEASUREMENT_NOTES: switch fluorescence ratio, 500 uM ATP over buffer (Cy3 cluster intensity, sum of 5 cycles each) (fold (ratio)); higher = stronger signal-on switching upon ATP binding; sequences stand for … in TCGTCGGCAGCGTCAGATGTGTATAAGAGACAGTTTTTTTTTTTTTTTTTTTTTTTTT…TC
- CONDITIONS: aptamer strand: ATP DNA aptamer (quencher-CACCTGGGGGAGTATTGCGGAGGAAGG + anchor), 100 nM annealed; ATP concentration: 500 uM
Here the recorded switch fluorescence ratio is given for each entry.
Just the number, please.

Please review the entries below; each comes with its answer.
INSERT INTO assay_data (residue_string, property_name, result) VALUES
  ('CAAACTAGC', 'switch fluorescence ratio', 0.99),
  ('TAATCGCCAA', 'switch fluorescence ratio', 1.05),
  ('CGAGGGGATT', 'switch fluorescence ratio', 1.25),
  ('TGCAGTGGGG', 'switch fluorescence ratio', 1.01),
  ('AGTAAAGGGA', 'switch fluorescence ratio', 1.02),
  ('AGGGGGACAG', 'switch fluorescence ratio', 0.976),
  ('GTTTCGAAAA', 'switch fluorescence ratio', 0.986),
  ('TTTTTAAGGC', 'switch fluorescence ratio', 1.02),
  ('AGGTCGGCAT', 'switch fluorescence ratio', 0.997),
  ('TAGAGTTGTT', 'switch fluorescence ratio', 0.984);

# return switch fluorescence ratio for CCGTATGTTT , test system: ATP 1.11

# return switch fluorescence ratio for TTGAGAATCC , test system: ATP 1.01

# return switch fluorescence ratio for ATCAATTTAA , test system: ATP 0.976

# return switch fluorescence ratio for GGACATGGGT , test system: ATP 1

# return switch fluorescence ratio for ACACATTGGA , test system: ATP 1.03

---

- Test system: ATP;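 further: ATP exposure 15 min at 22 °C before imaging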
- MEASUREMENT_NOTES: switch fluorescence ratio, 500 uM ATP over buffer (Cy3 cluster intensity, sum of 5 cycles each) (fold (ratio)); higher = stronger signal-on switching upon ATP binding; sequences stand for … in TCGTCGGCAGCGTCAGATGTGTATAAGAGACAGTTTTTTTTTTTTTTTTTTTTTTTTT…TC
- CONDITIONS: aptamer strand: ATP DNA aptamer (quencher-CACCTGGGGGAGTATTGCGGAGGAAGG + anchor), 100 nM annealed; ATP concentration: 500 uM
We use 1 as the dividing line for switch fluorescence ratio: on or above the line is 1, below is -1.

INSERT INTO assay_data (residue_string, assigned_label) VALUES
  ('CAATGAACAC', 1);

Test whether the sequence CGCGCCTATC records switch fluorescence ratio of 1 or higher. 1

Test whether the sequence GAAAAGTTTT records switch fluorescence ratio of 1 or higher. -1

Test whether the sequence TTGGTAGGTG records switch fluorescence ratio of 1 or higher. 1

Where do the numbers come from? From the supplement of paper PMC10126150.
